Assign apparent KD of K4 kissing-loop reporter to each entry below.
# System: K4 kissing-loop RNA reporter;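 note: bound reporter read as fluorescence of individual clusters on recovered sequencing chips by microscopy, with normalized cluster intensities fitted with a binding model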
# METHOD_SUMMARY: apparent KD of K4 kissing-loop reporter; higher = weaker reporter binding
# CONDITION_INFO: Eterna round: R107; input ligand: none
I only need the number, in nM, no unit after it.

Lab book: apparent KD of K4 kissing-loop reporter of CCUAUCUCAUACGAUACCAGUCAAUGAUCUUUGAUCAAUGCCAUCACCGAGUGAUGUUCGGACCCUUGGCAGCGUAUGGGAUAGG [whbob_Ex_Theo_B_sa102] noted as 269

So for UGUACCGAGUCAGGAUAUGUCGUCGAAAGACGAAAUGGAGUGAUGUUCCUUAAACUGCGAAAGCAGACAGAAGGGACUUGGUACU [FmnBS 29 #SwitchBubble #StaticStem #DoubleMagnetSystem] , the logged apparent KD of K4 kissing-loop reporter turned out to be 385

// recorded apparent KD of K4 kissing-loop reporter for UGACUGGACUGAAGGAGCGCGAAACUCCUAGUGAUGUUAGGAAUACGAGACAAAGUCUCGACGCAGGUAGGUCGCAGUCUAGUCU [ArgBS 16 #SwitchBubble #StaticStem] : 113

* * *

Assignment: determine reported apparent KD of MS2 coat protein for the given sequences.
# System: MS2 coat protein
# METHOD_SUMMARY: apparent KD of MS2 coat protein; designed switch direction (-1 OFF switch, 1 ON switch): -1; higher = weaker reporter binding
# CONDITION_INFO: input ligand: microRNA oligo, concentration not stated
Answer with a number only, understood to be in µM.

The measured apparent KD of MS2 coat protein associated with UAGAUGGGAGGAUAUACGUAGAUGCAGGUUCGUGUGGUGCUACAUGAGGAUCACCCAUGUAGAAGGCCCGUCUU [JL-ex2-2.29 Mayanne mod] (Eterna round: R96, puzzle: Exclusion 2) reads 0.0141

The value of apparent KD of MS2 coat protein measured for the sequence UCUCGCGGGCAAGGAUAUCCUACGUUGUUCUGGCCCGUGCAUGUUACAUGAGGAUCACCCAUGUGGGAGAAGGUGCACCAGGGC [Design 38] (Eterna round: R96, puzzle: Exclusion NG 2) turned out to be 0.0303

Item: GUUGUUUAUGUAGGAUAUGCCUGGCGUGCCUUCGCAGAAGGACAUGAGGAUCACCCAUGUAUUGCGGUCUGCGUUCAGAUCGCU [salish99_ExNG1_r4_023] (Eterna round: R96, puzzle: Exclusion NG 1) | apparent KD of MS2 coat protein: 0.0388

Reported apparent KD of MS2 coat protein of AAGGGUACUUUCAGAACGACAUGAGGAUCACCCAUGUAGACUGAGGAUAUCUACUACUAAGGACGGGAGAAGGCAGUGUAAUGU [Ex NG3 #73] (Eterna round: R96, puzzle: Exclusion NG 3) : 0.01

Data point: GUACUAAAGCUUUGCUUUAGUCGUACAUGAGGAUCACCCAUGUAGGAUAUGGUAAGCAUAGCUUACUAGAAGGAUAGAGUGAUC [Mat - Exclusion NG 3 - Mod of JL - D66] (Eterna round: R96, puzzle: Exclusion NG 3) ; apparent KD of MS2 coat protein = 0.146

Short answer for AACCUGAGGCAAAGCUUUAGGUGUACAUGAGGAUCACCCAUGUAGGAUAUGGUAGGCAAAGCUUACCAGAAGGACAUAAAGGUU [Mat - Exclusion NG 3 - Mod of JL - D45] (Eterna round: R96, puzzle: Exclusion NG 3) : apparent KD of MS2 coat protein was 0.0364

Memo: UUUUUAUAUGAAGGAUAUACUUAACAUGAGGAUCACCCAUGUGGUGUUGUGAGUGAGUGAGUUUAGUAGAAGGUCAAUGAUUUU [JMF's solution 10] (Eterna round: R96, puzzle: Exclusion NG 2) , reported apparent KD of MS2 coat protein: 0.326

Data point: GUCAGCUCGUGAGGAUAUAUAUACAUGAGGAUCACCCAUGUAAGAUCAGGCUUCGGCCAAUGUAUAUAGAAGGCACGAGCUGAC [ENG2/11-A1] (Eterna round: R96, puzzle: Exclusion NG 2) ; apparent KD of MS2 coat protein = 1.51

Recorded apparent KD of MS2 coat protein (sequence CGAUAAAGGUGAGGAUAUGAGAAUAGAAAGAAAUCAGAAGGCACACAUGAGGAUCACCCAUGUGAGUUCUUGAGAUUACAUGGU [Prohibition 44 - Jieux - Exclusion NG 1] (Eterna round: R96, puzzle: Exclusion NG 1) ): 0.011

* * *

# Test system: MS2 coat protein
# METHOD_SUMMARY: apparent KD of MS2 coat protein; higher = weaker reporter binding
# CONDITION_INFO: Eterna round: R107; input ligand: theophylline 20 uM
For each of the sequences below, state its apparent KD of MS2 coat protein.
Give your result in nM as a bare value.

Reported apparent KD of MS2 coat protein of AAUGUAAUAGUCGUACUCUUACACUGAGAAGGAGCGCGAAAGUUCGCAGGUAGGUCGCUCAGUUAUACAUGAGGAUCACCCAUGU [Bebemaata] : 28.3

Form: sequence = UGUAUGGACUGAAGGAGCGACUCAAAAUAACAUGAGGAUCACCCAUGUAAGGCGAAAGCCGGUCAGGUAGGUCGCAGUCCAUACU [ArgBX 3] ; apparent KD of MS2 coat protein = 16.1

The sequence identified as AUUUAUAGUUGUGAUACCAGACUUACAUGAGGAUCACCCAUGUUACUUAAAUGUUUUGAUGUCCCUUGGCAGCACUGUUUUUUUA [JR_Nu_ExcTheophyB_Sub029] registered its apparent KD of MS2 coat protein at 22.6

Lab note: AAUAACAAGAGGAUCACCCUUGUAAAAGAUACCAGAGUGAUGAUCCUCCCUUGGCAGCUUAACGCUGAUUGAUUACAAUCAGCGA gave apparent KD of MS2 coat protein of 81.8

Reported apparent KD of MS2 coat protein for ACAUGAGGAUCACCCAUGUAAUCAUCAGAAGGAGCGUGGAAUAACACAGGUAGGUCGCUGAUGUUAUAUUAAUCUUAUUCGUAAA [JR_ExcArginiA_Sub003] was 18.7

Lab book: apparent KD of MS2 coat protein of GGAUAGGACAGAAGGAGCGACAUGGCAGAAACUGCAAUCCUCCUACACGAGGAUCACCCGUGUCAGGUAGGUCGCUGUCCUAUCG [ArgXB 12 #Zipper #MS2Left #StaticStem #Blueprint] noted as 34.8

Note to self: apparent KD of MS2 coat protein recorded for AGUUUGGACUCGGCCGCCACUCGUGAUGCUUUGGCACAUGAGGAUCACCCAUGUGGUCGGCCUUAGAGGACCGGGAGUACCAGCC [Edesceso] was 297

GUAGGUCACCUCAUGAGACCUACCCUGGAAGGAGCGAGCGAAAGCUCAGGUAGGUCGCCAGAAACAUGAGGAUCACCCAUGUAAU [(A)''-(M)'-(A)'-(Arg1)-(Arg2)-(M1)-(M2)_Design3] has a reported apparent KD of MS2 coat protein of 150

The sequence listed as UGGAAAGCACAUGAGGAUCACCCAUGUGAUACCAGCUGAAACUAAGGCCCUUGGCAGCACAUGGUACCAACCCUUUGGUAGUCCA [Vearedqu] shows apparent KD of MS2 coat protein equal to 19.9

For this sequence ( CGAAUAUAGACGGCCGCCACUCUACAAACAUGAGGAUCACCCAUGUUCACAUAGUGGAAACACAUGAGGACCGGGUCAUAGGCAU [#18 Same State - Tryptophan B] ), measured apparent KD of MS2 coat protein is 25.4

Just so you know, measured apparent KD of MS2 coat protein for CUAUAUUUAUCGGCCGCCACUUACUCAUGAGGUAACAACAUGAGGAUCACCCAUGUUUGAGGAUCAAGGACCGGGAUAAAUAUAG [AstrosSSTryB#17] came out at 34.2

Value of apparent KD of MS2 coat protein reported for the sequence ACAUGAGGAUCACCCAUGUGGCGUCUUGAUACCAGACGAGAAGUAGUCCCUUGGCAGCAAAUACGUGAGGAUCACACAUGUGCGA [cccmullin3] is 30.9

// apparent KD of MS2 coat protein lookup, sequence = UGUCGGCGAAAGUUGGCGUGUCUUGCUGGUCGAGGACCGGUACGGCCGCCACUCGAUCCUUCGCACAUGAGGAUCACCCAUGUUG [SS Tryp A #24] , result: 49.1

apparent KD of MS2 coat protein reading for AUAAGUAAUGUUUCGUGUAUUAUUACAGAUACCAGACUAUACGUUGUCCCUUGGCAGCUGGAUUACAUGAGGAUCACCCAUGUUG [JR_ExcTheophyA_Sub002] : 19.3

The recorded apparent KD of MS2 coat protein for entry GCCUAGCAUCGAAGGAGCGGGCAUUACGCGCGAAAGCGCGAUGCACGAGGAUCACCCGUGUCCCAGGUAGGUCGCGAUGCUAGGC [SSAB Alternative Aptamer #4 V+V2] equals 368

The sequence listed as GGUUCAUCGUCGGCCGCCACUCACAUGAGGUGGAGCUGUAAACAUGAGGAUCACCCAUGUUGUUAGAGGACCGGGACGUGACGGC [theeternabot_exclusion_MS2_Trp_B_6] has a reported apparent KD of MS2 coat protein of 43.4

Entry UCUGCCGCGGCUCCGAUCCUCCUGUAGUUCCGAGGACCGGUACGGCCGCCACUCGUAGCACAUGAGGAUCACCCAUGUCUUGCGG [Tiqurabira] , apparent KD of MS2 coat protein reported as 17.5

Consider CUAUCCUUGCCGGAUGAAGGACACUGAGAAGGAGCGCGGUAAUCCGCAGGUAGGUCGCUCAGGAGUACAUGAGGAUCACCCAUGU [Xeonrave] . Its measured apparent KD of MS2 coat protein is 26.9

Entry AUAACAUGAGGAUCACCCAUGUAAGCAGAUACCAGCUAGGAAACUAGCCCUUGGCAGCUGCAAUCAUGGGUGUUUGCAGCUGCAA [(M1)-(M2)-(T1)-(T2)-(M)'-(T)'_Design2] , apparent KD of MS2 coat protein reported as 36.9

Reported apparent KD of MS2 coat protein ( AAAAUCCUACCUGAGGAUCACCCAGGUGAAGGAGCGCCCGAAAGGGCAGGUAGGUCGCACCUGAGGAUCACCCUGGUAAACCUAA [ArgEX 22 #DoubleMS2 #OpenEnded] ) = 47.6

Entry under test: UUUUUCGUAGGUUAAAGUUUAGAAACUGAAGGAGCGUGGUAAUACACAGGUAGGUCGCAGAUUUUACAUGAGGAUCACCCAUGUU [JR_ExcArginiA_Sub012] . Its apparent KD of MS2 coat protein was 20.7

Input AAUAAUAACUGAAGGAGCGUCUAUAUUACAUGAGGAUCACCCAUGUUUAUAUGGUAUUAUAGACAGGUAGGUCGCAGAUUUUUUA [JR_SSArginiB_Sub016] . Output apparent KD of MS2 coat protein: 22.1

Reported apparent KD of MS2 coat protein for UGUACAUGAGGAUCACCCAUGUUACGCGAUACCAGACAUGAGAGUGUCCCUUGGCAGCGUGGAGCUGAUACGGCGGGAAGCCGGA [#10 SameState-TheophyllineA] was 50.2

The origin of these recorded values is the supplement of paper PMC9170038.
